- target-or-system: SLC19A2 (Homo sapiens, UniProt O60779)
- Sequence (O60779 whole entry): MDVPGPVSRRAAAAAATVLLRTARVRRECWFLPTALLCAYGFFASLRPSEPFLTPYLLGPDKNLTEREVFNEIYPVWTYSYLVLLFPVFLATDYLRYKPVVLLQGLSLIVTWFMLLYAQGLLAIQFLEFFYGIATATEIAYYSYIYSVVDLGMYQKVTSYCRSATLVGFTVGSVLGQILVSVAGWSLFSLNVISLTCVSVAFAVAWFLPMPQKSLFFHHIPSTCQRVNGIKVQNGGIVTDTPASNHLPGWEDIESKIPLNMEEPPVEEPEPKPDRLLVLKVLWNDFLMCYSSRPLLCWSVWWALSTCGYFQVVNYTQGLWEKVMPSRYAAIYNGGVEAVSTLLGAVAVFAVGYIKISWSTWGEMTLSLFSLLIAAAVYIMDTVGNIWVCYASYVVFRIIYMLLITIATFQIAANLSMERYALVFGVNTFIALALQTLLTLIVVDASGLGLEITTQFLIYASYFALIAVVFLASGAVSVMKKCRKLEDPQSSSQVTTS
- procedure-summary: SLC19A2 inhibitor screen: [3H]-thiamine uptake in SLC19A2-overexpressing HEK293 cells
- Type: cell-based
- Design: host or cells: HEK293, stably overexpressing SLC19A2 and transiently transfected with a further 500 ng wild-type plasmid
- setup-conditions: HEK293, 10 min, drug 1 mM, [3H]-thiamine 25 nM, 10 min, HEK293 cells expressing SLC19A2; relative to uptake without inhibitor; read-out: Average % SLC19A2 thiamine uptake
As shown below, each of these molecules has a reported remaining activity at 1000 µM value.
Field: numeric (%). Do not append units.

Sample answers from the record:
| molecule | remaining activity at 1000 µM, % |
| --- | --- |
| Cc1onc(-c2ccccc2)c1C(=O)N[C@@H]1C(=O)N2[C@@H]1SC(C)(C)[C@@H]2C(=O)O | 110 |
| CN(C)C(=N)N=C(N)N | 74.2 |
| NCC[C@H](O)C(=O)N[C@@H]1C[C@H](N)[C@@H](O[C@H]2O[C@H](CN)[C@@H](O)[C@H](O)[C@H]2O)[C@H](O)[C@H]1O[C@H]1O[C@H](CO)[C@@H](O)[C@H](N)[C@H]1O | 98.7 |
| Nc1nc(F)nc2c1ncn2[C@@H]1O[C@H](CO)[C@@H](O)[C@@H]1O | 71.1 |
| COc1c(C)c2c(c(O)c1C/C=C(\C)CCC(=O)O)C(=O)OC2 | 82.7 |

// field: remaining activity at 1000 µM; key: `CC[C@H]1OC(=O)[C@H](C)[C@@H](O[C@H]2C[C@@](C)(OC)[C@@H](O)[C@H](C)O2)[C@H](C)[C@@H](O[C@@H]2O[C@H](C)C[C@H](N(C)C)[C@H]2O)[C@](C)(O)C[C@@H](C)C(=O)[C@H](C)[C@@H](O)[C@]1(C)O` ; value = 29.8

// field: remaining activity at 1000 µM; key: COc1cc(NC(C)CCCN)c2ncccc2c1 (centres unmarked) ; value = 76.5

// field: remaining activity at 1000 µM; key: `Oc1ncnc2[nH]ncc12` ; value = 96.9

// field: remaining activity at 1000 µM; key: C/C(O)=C(\C#N)C(=O)Nc1ccc(C(F)(F)F)cc1 [Teriflunomide] ; value = 95.7

// field: remaining activity at 1000 µM; key: COCCCOc1ccnc(C[S+]([O-])c2nc3ccccc3[nH]2)c1C (centres unmarked) ; value = 75.3

// field: remaining activity at 1000 µM; key: N=C(N)NC(=O)c1nc(Cl)c(N)nc1N [Amiloride] ; value = 44.8
